Taken from patent US20050159365A1.

measurement_notes: Serum KRN7000 levels by LC-MS/MS after intravenous administration to HCV-infected chimpanzees
Format: in vivo
test_settings: chimpanzee, serum, iv, 10 μg/kg, Animal C54, first administration (10 μg/kg i.v., day 0), 6 hours later; read-out: Concentration in blood (serum KRN7000 level)
result_type: concentration at 6 h (ng/mL)
Respond numerically; units are ng/mL and should not be typed.

Report concentration at 6 h for CCCCCCCCCCCCCCCCCCCCCCCCCC(=O)N[C@@H](CO[C@H]1O[C@H](CO)[C@H](O)[C@H](O)[C@H]1O)[C@H](O)[C@H](O)CCCCCCCCCCCCCC [KRN7000]
42

---

measurement_notes: Serum KRN7000 levels by LC-MS/MS after intravenous administration to HCV-infected chimpanzees
Type: in vivo
test_settings: chimpanzee, serum, iv, 10 μg/kg, Animal C54, second administration (10 μg/kg i.v., day 28), 6 hours later; read-out: Concentration in blood (serum KRN7000 level)
result_type: concentration at 6 h (ng/mL)
Respond numerically; units are ng/mL and should not be typed.

Report concentration at 6 h for `CCCCCCCCCCCCCCCCCCCCCCCCCC(=O)N[C@@H](CO[C@H]1O[C@H](CO)[C@H](O)[C@H](O)[C@H]1O)[C@H](O)[C@H](O)CCCCCCCCCCCCCC`
77

---

measurement_notes: Serum KRN7000 levels by LC-MS/MS after intravenous administration to HCV-infected chimpanzees
Assay type: in vivo
test_settings: chimpanzee, serum, iv, 10 μg/kg, Animal C33, second administration (10 μg/kg i.v., day 28), 15 minutes later; read-out: Concentration in blood (serum KRN7000 level)
result_type: concentration at 15 min (ng/mL)
Respond numerically; units are ng/mL and should not be typed.

Report concentration at 15 min for CCCCCCCCCCCCCCCCCCCCCCCCCC(=O)N[C@@H](CO[C@H]1O[C@H](CO)[C@H](O)[C@H](O)[C@H]1O)[C@H](O)[C@H](O)CCCCCCCCCCCCCC [KRN7000]
97

---

measurement_notes: Serum KRN7000 levels by LC-MS/MS after intravenous administration to HCV-infected chimpanzees
Type: in vivo
test_settings: chimpanzee, serum, iv, 10 μg/kg, Animal C54, first administration (10 μg/kg i.v., day 0), 15 minutes later; read-out: Concentration in blood (serum KRN7000 level)
result_type: concentration at 15 min
Record the result as number plus unit.

Report concentration at 15 min for `CCCCCCCCCCCCCCCCCCCCCCCCCC(=O)N[C@@H](CO[C@H]1O[C@H](CO)[C@H](O)[C@H](O)[C@H]1O)[C@H](O)[C@H](O)CCCCCCCCCCCCCC`
129 ng/mL
